Measured % Mortality 4 h accompanies every entry in the list below.
- Test system: Rhipacephalus sanguineus, adult ticks
- assay-protocol: Contact activity against adult ticks, coated glass vial assay
- Assay type: in vivo
- conditions: Conc. 0.78 ug/cm2, 4 h
Please state the figure in %; there is no need to write the unit.

Example compounds with recorded % Mortality 4 h:
>  <compound>
CC1(c2nn(-c3c(Cl)cc(C(F)(F)F)cc3Cl)c(Cl)c2C#N)CC1(Br)Br (centres unmarked)

>  <% Mortality 4 h (%)>
0

$$$$
>  <compound>
CC1(c2nn(-c3c(Cl)cc(C(F)(F)F)cc3Cl)cc2C#N)CC1(Br)Br (centres unmarked)

>  <% Mortality 4 h (%)>
40

$$$$
>  <compound>
CC1(c2nn(-c3c(Cl)cc(C(F)(F)F)cc3Cl)c(N)c2C#N)CC1(Br)Br (centres unmarked)

>  <% Mortality 4 h (%)>
10

$$$$
>  <compound>
CC1C(Cl)(Cl)C1(C)c1nn(-c2c(Cl)cc(C(F)(F)F)cc2Cl)cc1C#N (centres unmarked)

>  <% Mortality 4 h (%)>
0

$$$$
>  <compound>
CC1(c2nn(-c3c(Cl)cc(C(F)(F)F)cc3Cl)c(Cl)c2C#N)CC1(Cl)Cl (centres unmarked)

>  <% Mortality 4 h (%)>
60

$$$$
>  <compound>
CC1(c2nn(-c3c(Cl)cc(C(F)(F)F)cc3Cl)c(Br)c2C#N)CC1(Br)Br (centres unmarked)

>  <% Mortality 4 h (%)>
20

$$$$
>  <compound>
CC1(c2nn(-c3c(Cl)cc(C(F)(F)F)cc3Cl)c(Br)c2C#N)CC1(Cl)Cl (centres unmarked)

>  <% Mortality 4 h (%)>
0

$$$$

Now, please, on to the next compound.
Q: I'd like to know its % Mortality 4 h. The compound in question is CC1(c2nn(-c3c(Cl)cc(C(F)(F)F)cc3Cl)c(I)c2C#N)CC1(Cl)Cl (centres unmarked)
A: 10

---

The entries below are paired with their reported % Mortality 4 h.
- Tested on: Rhipacephalus sanguineus, adult ticks
- assay-protocol: Contact activity against adult ticks, coated glass vial assay
- Format: in vivo
- conditions: Conc. 0.78 ug/cm2, 4 h
- Experimental: Evaluation of the Efficacy of Test Compounds Against Adult Ticks The contact activity of a test compound against Rhipacephalus sanguineus, adult ticks, is evaluated in a coated glass vial assay. In this evaluation, a solution of test compound in acetone is allowed to dry on the interior surface of a 20 mL vial. Five unfed adult ticks are added to the treated vial and mortality is assessed periodically for up to 48 h. All treatments are replicated 2 times. The data are averaged.
# value in %; strip the unit string

>  <compound>
CC1(c2nn(-c3c(Cl)cc(C(F)(F)F)cc3Cl)c(N)c2C#N)CC1(Cl)Cl (stereo not drawn) [Example 19]

>  <quantity-measured>
% Mortality 4 h

>  <value-measured>
0

$$$$

Q: Which % Mortality 4 h is reported for this compound? CN(C)c1c(C#N)c(C2(C)CC2(Cl)Cl)nn1-c1c(Cl)cc(C(F)(F)F)cc1Cl (stereo not drawn) [Example 32]
A: 0

Q: Can you share its % Mortality 4 h? I mean this compound: N#Cc1nn(-c2c(Cl)cc(C(F)(F)F)cc2Cl)c(N)c1[S+]([O-])C(F)(F)F (stereo not drawn) [Standard, Fipronil, reference compound]
A: 90

Entry source: patent US20060154923A1
